B1: MYBL2 (parent)
chain: FPNRTDQQCQYRWLRVLNPDLVKG

variants of: B1; test: protein stability index of a GFP-peptide fusion (GPS, HEK-293T) (PSI 1-6); higher = more stable; settings: c terminus: a fixed tail appended;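 also: lentivirally expressed fusions sorted by FACS into six bins by GFP to DsRed ratio, PSI derived from sequencing read proportions per bin multiplied by bin number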
Measured protein stability index values are reported for all entries that follow.
Number, no unit, nothing else.

Note to self: protein stability index recorded for FPNRTDQQCQYRWLRQLNPDLVKG [V16Q] was 2.46
